target: CDK11B/Cyclin L2 (Homo sapiens); experiment: NanoBRET live-cell target engagement, CDK11B-NanoLuc/Cyclin L2 in HEK-293; format: binding; conditions: CDK11b/L2; 10µM; read-out: Inhibition at 10µM (%) Replicate 2
Sequence (P21127 1-782 isoform P21127-2): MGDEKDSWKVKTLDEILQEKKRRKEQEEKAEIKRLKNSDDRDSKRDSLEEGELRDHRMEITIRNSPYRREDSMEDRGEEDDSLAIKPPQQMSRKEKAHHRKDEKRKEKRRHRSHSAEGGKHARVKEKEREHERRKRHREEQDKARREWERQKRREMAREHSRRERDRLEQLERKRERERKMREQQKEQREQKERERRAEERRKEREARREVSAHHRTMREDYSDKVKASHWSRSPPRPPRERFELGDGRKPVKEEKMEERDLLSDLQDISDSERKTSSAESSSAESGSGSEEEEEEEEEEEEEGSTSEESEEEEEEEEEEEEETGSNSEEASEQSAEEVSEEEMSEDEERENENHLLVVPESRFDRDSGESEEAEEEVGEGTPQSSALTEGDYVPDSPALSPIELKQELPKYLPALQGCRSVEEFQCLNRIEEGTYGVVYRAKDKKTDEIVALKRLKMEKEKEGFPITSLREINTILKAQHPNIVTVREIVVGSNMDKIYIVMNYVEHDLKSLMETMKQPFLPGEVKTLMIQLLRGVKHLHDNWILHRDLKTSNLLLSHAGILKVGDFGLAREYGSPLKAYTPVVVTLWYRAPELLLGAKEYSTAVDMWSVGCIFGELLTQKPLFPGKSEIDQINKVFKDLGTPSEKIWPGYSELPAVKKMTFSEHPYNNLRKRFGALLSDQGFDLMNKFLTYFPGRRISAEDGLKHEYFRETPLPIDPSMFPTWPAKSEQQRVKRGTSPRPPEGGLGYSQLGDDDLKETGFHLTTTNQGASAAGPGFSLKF
Recorded measurements of inhibition at 10 µM, one per entry
Give your result in % as a bare value.

COc1cc(F)ccc1-c1ncnc(Nc2cccc(C[S@](C)(=N)=O)c2)n1 : 2.9
CCCCOc1c(C(=O)c2c(F)cc(C)cc2F)c[nH]c2nncc1-2 : 13.8

Exercise: Please give the measured inhibition at 10 µM for this compound: CCN1CCN(Cc2ccc(Nc3ncc(F)c(-c4cc(F)c5nc(C)n(C(C)C)c5c4)n3)nc2)CC1
Key: 27.6

Exercise: Check COc1cc(F)ccc1-c1cc(Nc2cc(CS(C)(=N)=O)ccn2)ncc1F (stereo not drawn) too.
Key: 32.1

Exercise: Thanks! And CCN1CCN(Cc2ccc(NC(=O)Nc3ccc(Oc4cc(NC)ncn4)cc3)cc2C(F)(F)F)CC1 ?
Key: 9.7

Exercise: How about this compound: Cc1ncc(-c2ccnc(Nc3ccc(S(C)(=O)=O)cc3)n2)n1C(C)C
Key: 69.7

###

biological target: CDK15/Cyclin Y (Homo sapiens, UniProt Q96Q40); assay: NanoBRET live-cell target engagement, NanoLuc-CDK15/Cyclin Y in HEK-293; format: binding; conditions: CDK15/Y; average (± SEM where n=3); read-out: IC50
Sequence (Q96Q40 whole entry): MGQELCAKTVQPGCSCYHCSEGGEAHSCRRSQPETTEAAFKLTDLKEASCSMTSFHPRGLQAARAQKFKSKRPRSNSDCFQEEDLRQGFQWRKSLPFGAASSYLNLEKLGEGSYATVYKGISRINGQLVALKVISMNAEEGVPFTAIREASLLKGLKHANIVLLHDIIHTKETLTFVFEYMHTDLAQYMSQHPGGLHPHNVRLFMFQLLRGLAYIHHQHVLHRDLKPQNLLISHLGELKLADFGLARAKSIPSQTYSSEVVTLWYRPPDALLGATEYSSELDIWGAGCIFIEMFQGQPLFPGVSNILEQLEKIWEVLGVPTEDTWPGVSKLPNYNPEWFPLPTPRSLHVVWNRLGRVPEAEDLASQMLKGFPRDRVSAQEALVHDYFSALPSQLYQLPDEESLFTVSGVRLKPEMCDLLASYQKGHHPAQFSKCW
Sequence (Q8ND76 whole entry partner): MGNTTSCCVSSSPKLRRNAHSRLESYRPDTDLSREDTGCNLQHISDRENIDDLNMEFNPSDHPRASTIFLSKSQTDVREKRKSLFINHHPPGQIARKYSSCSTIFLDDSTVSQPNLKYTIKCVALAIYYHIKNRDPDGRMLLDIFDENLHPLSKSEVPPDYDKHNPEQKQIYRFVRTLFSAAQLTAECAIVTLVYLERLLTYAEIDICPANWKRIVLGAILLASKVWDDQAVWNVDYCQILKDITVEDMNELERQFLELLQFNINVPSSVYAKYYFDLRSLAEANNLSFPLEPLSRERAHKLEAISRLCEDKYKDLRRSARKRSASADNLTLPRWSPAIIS
Reported pIC50 values for a set of compounds
Interpret pIC50 as the negative base-10 log of the concentration measured in mol/L.

CS(=O)(=O)N1CCC(NC(=O)c2[nH]ncc2NC(=O)c2c(Cl)cccc2Cl)CC1 [NVP-LCQ195] : 6.42
CC(C)c1c2cc(-c3ccnc(N[C@H]4CC[C@H](NC5CCOCC5)CC4)n3)ccc2nn1C [LY2857785] : 6.49

Exercise: So what's the measured pIC50 for this one? CNc1nc(C)c(-c2nc(Nc3cccc(S(N)(=O)=O)c3)ncc2F)s1 [CDKI-73]
Key: 7.10

Exercise: Moving on to CNC(=O)c1nn(C)c2c1C(C)(C)Cc1cnc(Nc3ccc(N4CCN(C)CC4)cc3)nc1-2 [Milciclib]
Key: 6.06

Exercise: Let us now turn to CC(C)c1cnn2c(NCc3ccccc3-n3cccn3)nc(OC3CCCNC3)nc12 (stereo not drawn) [LDC4297]
Key: 6.66

Exercise: Repeat for the following compound: COc1ccc(F)cc1-c1cc(NC(=O)C2CCCNC2)ncc1Cl (stereo not drawn) [CDK inhibitor 2]
Key: 6.27

###

Listing of recorded Inhibition at 10µM (%) Replicate 2 by entry.
target: CDK1/Cyclin E1 (Homo sapiens); experiment: NanoBRET live-cell target engagement, CDK1-NanoLuc/Cyclin E1 in HEK-293; type: binding; conditions: CDK1/E1; 10µM
Sequence (P06493 whole entry): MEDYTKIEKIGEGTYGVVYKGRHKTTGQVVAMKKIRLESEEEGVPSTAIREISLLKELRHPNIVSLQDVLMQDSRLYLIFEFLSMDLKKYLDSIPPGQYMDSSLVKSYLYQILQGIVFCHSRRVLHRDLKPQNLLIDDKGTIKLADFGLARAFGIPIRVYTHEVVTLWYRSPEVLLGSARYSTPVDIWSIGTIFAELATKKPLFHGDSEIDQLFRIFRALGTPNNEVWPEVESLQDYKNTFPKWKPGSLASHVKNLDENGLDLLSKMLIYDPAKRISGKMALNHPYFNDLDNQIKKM
Sequence (P24864 whole entry partner): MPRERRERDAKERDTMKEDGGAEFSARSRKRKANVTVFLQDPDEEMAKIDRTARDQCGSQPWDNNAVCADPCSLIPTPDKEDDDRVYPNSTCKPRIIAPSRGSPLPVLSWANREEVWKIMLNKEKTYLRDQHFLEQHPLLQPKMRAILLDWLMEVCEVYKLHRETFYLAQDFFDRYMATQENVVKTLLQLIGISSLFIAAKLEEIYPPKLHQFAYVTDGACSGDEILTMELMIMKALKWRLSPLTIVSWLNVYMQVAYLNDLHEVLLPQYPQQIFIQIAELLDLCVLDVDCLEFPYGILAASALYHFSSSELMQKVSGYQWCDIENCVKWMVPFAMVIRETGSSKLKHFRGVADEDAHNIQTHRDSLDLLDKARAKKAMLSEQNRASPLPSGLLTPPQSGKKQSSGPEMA
Provide the reading as a plain figure in %.

CC(C)c1cnn2c(NCc3ccccc3)cc(N[C@@H](CO)[C@H](O)CO)nc12 [BS-194] : 77.7
CNC1CCN(C(=O)c2ccc(Nc3ncc(F)c(-c4cnc(C)n4C(C)C)n3)cc2)C1 (stereo not shown) [AZD5597] : 95.4
CCC(CO)Nc1nc(Nc2cccc(-c3ccccn3)c2)c2ncn(C(C)C)c2n1.Cl.O [(R) - DRF053] : 41.5

Exercise: Give the measured Inhibition at 10µM (%) Replicate 2 of O=C(Nc1c[nH]nc1-c1ccccn1)c1nn(C2CCNCC2)cc1Cl [BDP5290] .
Key: 12.1

All figures here come from paper PMC7265341.
